Values were extracted from patent US10913736B2.

System: T. brucei
Assay: Growth inhibition assay of T. brucei cell cultures (Alamar Blue, 48 h)
Type: cell-based
Details: Trypanosoma brucei; read-out: B) T. brucei EC50
# EC50 binned as lower band: < 0.6 µM; central band: ≥ 0.6 µM and < 5 µM; upper band: ≥ 5 µM

Molecule: O=C(Cc1cc(Cl)cc(Cl)c1)NCc1nc2cnc(Cl)cc2[nH]1
Label class: upper band

Molecule: O=C(CCOc1ccc(Cl)cc1Cl)NCc1nc2ccc(F)nc2[nH]1
Label class: upper band

Molecule: O=C(Cc1cc(Cl)cc(Cl)c1)N1CCCC(c2nc3c(Cl)cccc3[nH]2)C1 (stereo not shown)
Label class: upper band

Molecule: O=C(NCc1nc2ccccc2[nH]1)C(=O)NCc1ccc(Cl)cc1Cl
Label class: upper band

Molecule: CC(=O)N(CCNc1nc2nc(F)ccc2[nH]1)Cc1cc(Cl)cc(Cl)c1
Label class: central band

Molecule: Fc1ccc2nc(NCCCNc3ccc(Cl)cc3Cl)[nH]c2n1
Label class: central band

Molecule: Clc1cc(Cl)cc(NCC2CCCN(c3nc4nc(Cl)c(Br)cc4[nH]3)C2)c1 (stereo not shown)
Label class: central band

Molecule: Clc1cc(Cl)cc(CNCCNc2nc3ccc(Cl)cc3[nH]2)c1
Label class: lower band

Molecule: O=C(/C=C/Oc1ccc(Cl)cc1Cl)NCc1nc2ccccc2[nH]1
Label class: lower band

Molecule: OC1NC(Cc2ccc(Cl)cc2Cl)=CN1Cc1nc2ccccc2[nH]1 (stereo not shown)
Label class: central band

Molecule: COc1ccc(Oc2nc(NCc3nc4ccc(F)nc4[nH]3)nc(Oc3ccc(OC)cc3Cl)n2)c(Cl)c1
Label class: lower band

Molecule: Clc1cc(Cl)cc(CNc2cccc(-c3nc4ccc(Cl)cc4[nH]3)c2)c1
Label class: lower band

Molecule: Clc1ccc(Cn2cc(Cc3nc4ccccc4[nH]3)nn2)c(Cl)c1
Label class: upper band

Molecule: CN(CCNCc1cc(Cl)cc(Cl)c1)c1nc2nc(F)ccc2[nH]1
Label class: lower band

Molecule: Clc1cc(Cl)cc(CN2CCN(c3nc4nc(Cl)ccc4[nH]3)CC2)c1
Label class: upper band

Molecule: COc1ccc(Oc2nc(NCc3nc4ccc(F)nc4[nH]3)nc(NCc3nc4ccc(F)nc4[nH]3)n2)c(Cl)c1
Label class: upper band

Molecule: O=C(Cc1nc2cc(Cl)cc(Cl)c2[nH]1)NCc1nc2ccccc2[nH]1
Label class: upper band

Molecule: O=C1N[C@@H](Cc2ccc(Cl)cc2Cl)C(=O)N1Cc1nc2ccccc2[nH]1
Label class: upper band

Molecule: CC(=O)N1CCC(N(C(C)=O)[C@H]2CCCN(c3nc4nc(Cl)ccc4[nH]3)C2)c2cc(Cl)cc(Cl)c21 (stereo partly shown)
Label class: upper band

Molecule: CC(=O)N(CCCNc1nc2ccc(F)nc2[nH]1)Cc1cc(Cl)cc(Cl)c1
Label class: lower band

Molecule: Cc1ccc2nc(CC(C)NCc3cc(Cl)cc(Cl)c3)[nH]c2c1 (stereo not shown)
Label class: central band

Molecule: CC(=O)N(Cc1cc(Cl)cc(Cl)c1)N1CCCC(c2nc3cc(F)ccc3[nH]2)C1 (stereo not shown)
Label class: upper band

Molecule: OC1N[C@@H](Cc2ccc(Cl)cc2Cl)C(O)N1Cc1nc2ccccc2[nH]1 (stereo partly shown)
Label class: upper band

Molecule: O=C(/C=C\Oc1ccc(Cl)cc1Cl)NCc1nc2ccccc2[nH]1
Label class: central band

Molecule: O=C(Cc1cc(Cl)cc(Cl)c1)N1CCCC(c2nc3cc(Cl)c(Cl)cc3[nH]2)C1 (stereo not shown)
Label class: central band

Molecule: Clc1cc(Cl)cc(CNCc2nc3ccc(Br)cc3[nH]2)c1
Label class: upper band

Molecule: N[C@@H](COc1ccc(Cl)cc1Cl)C(=O)NCc1nc2ccccc2[nH]1
Label class: central band

Molecule: CN(CCNCc1cc(Cl)cc(Cl)c1)c1nc2ccc(Cl)nc2[nH]1
Label class: lower band

Molecule: O=C(CCOc1ccc(Cl)cc1Cl)NCc1nc2ccc(F)cc2[nH]1
Label class: upper band

Molecule: Clc1cc(Cl)c(Cl)c(CN[C@H]2CCCN(c3nc4nc(Cl)ccc4[nH]3)C2)c1
Label class: lower band

Molecule: Clc1cc(Cl)cc(CNC2CN(c3nc4nc(Cl)c(Br)cc4[nH]3)C2)c1
Label class: upper band

Molecule: Fc1ccc2[nH]c(C3CCCC(NCc4cc(Cl)cc(Cl)c4)C3)nc2n1 (stereo not shown)
Label class: central band

Molecule: CCC(=O)NC(CC(=O)NCc1cc(Cl)cc(Cl)c1)c1nc2ccc(Cl)nc2[nH]1 (stereo not shown)
Label class: upper band
